TARGET: Mu-type opioid receptor (Homo sapiens, UniProt P35372)
Sequence (P35372 whole entry): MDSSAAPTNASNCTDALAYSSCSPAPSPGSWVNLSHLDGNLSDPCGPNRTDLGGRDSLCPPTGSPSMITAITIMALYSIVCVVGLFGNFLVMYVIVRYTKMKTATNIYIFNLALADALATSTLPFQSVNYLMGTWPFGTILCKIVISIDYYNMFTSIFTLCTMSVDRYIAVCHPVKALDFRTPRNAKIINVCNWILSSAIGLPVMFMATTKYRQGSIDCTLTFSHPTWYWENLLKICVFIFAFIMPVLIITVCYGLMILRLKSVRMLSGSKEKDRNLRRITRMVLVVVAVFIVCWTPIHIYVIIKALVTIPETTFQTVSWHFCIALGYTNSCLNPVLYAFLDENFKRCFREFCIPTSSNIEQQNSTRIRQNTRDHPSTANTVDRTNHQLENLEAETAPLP
Square brackets hold non-standard residues; d marks the D form. Peptide text beside a SMILES is read from it.
READOUT KIND: pKi
In plain terms, pKi is the concentration in mol/L turned into minus its base-10 logarithm.

Known pKi results, listed for orientation:
compound="CC(=O)N[C@@H](Cc1ccc(O)cc1)C(=O)N[C@@H](CCCCN)C(=O)N[C@@H](Cc1c[nH]c2ccccc12)C(=O)N[C@@H](Cc1c[nH]c2ccccc12)C(N)=O (Ac-YKWW-NH2)" quantitative_readout=5.44
compound=CC(C)C[C@H](NC(=O)[C@H](Cc1ccccc1)NC(=O)CNC(=O)CNC(=O)[C@@H](N)Cc1ccc(O)cc1)C(=O)N[C@@H](CCCN=C(N)N)C(=O)N[C@@H](CCCN=C(N)N)C(=O)N[C@H](C)C(=O)N[C@@H](CCCN=C(N)N)C(=O)N1CCC[C@H]1C(=O)N[C@@H](CCCCN)C(N)=O quantitative_readout=8.71

Turning to the following compound.
[in] API: value(readout= pKi, system= Mu-type opioid receptor (Homo sapiens, UniProt P35372), query= CC(=O)N[C@@H](Cc1ccc(O)cc1)C(=O)N[C@@H](CCCCN)C(=O)N[C@@H](Cc1c[nH]c2ccccc12)C(=O)N[C@@H](Cc1c[nH]c2ccccc12)C(=O)N[C@@H](CC(C)C)C(=O)N[C@@H](CCCN=C(N)N)C(=O)N[C@@H](CCCN=C(N)N)C(=O)N[C@H](C)C(=O)N[C@@H](CCCN=C(N)N)C(=O)N1CCC[C@H]1C(=O)N[C@@H](CCCCN)C(N)=O (Ac-YKWWLRR[dA]RPK-NH2) )
[out] 6.60
